# test_system: Sigma non-opioid intracellular receptor 1 (Rattus norvegicus)
# method_summary: IC50 ratio; sigma 2 to sigma 1
# protocol_conditions: Cavia porcellus
Use 2 as the dividing line for Ratio, with the line itself on the fulfilled side and lower values as not fulfilled.

I'd appreciate it if you could say whether CC1(C)CCCN(CCCC2=CCc3ccccc32)C1 has Ratio at least equal to 2. not fulfilled

I'd appreciate it if you could say whether COc1cccc2c1CCCC2CCCN1CCCC(C)(C)C1 (stereo in doubt; (-)-22) has Ratio at least equal to 2. fulfilled

I'd appreciate it if you could say whether COc1ccc2c(c1)C(CCCN1CCCC(C)(C)C1)CCC2 (stereo unspecified) has Ratio at least equal to 2. fulfilled

I'd appreciate it if you could say whether CC1(C)CCCN(CCCC2CCCc3ccccc32)C1 (stereo unspecified) has Ratio at least equal to 2. not fulfilled

I'd appreciate it if you could say whether COc1cccc2c1CCC2CCCCN1CCCC(C)(C)C1 (stereo unspecified) has Ratio at least equal to 2. not fulfilled
